Task for the reader: assign each of the following compounds its reported IC50.
# Tested On: GABAA receptor
# Procedure Details: Steroid inhibition of [35S]-TBPS binding, rat brain cortical membranes
# Cond: 3 nM [35S]-TBPS, in the presence of 5 mM GABA
# Method: [^35S]-t-Butylbicyclophosphorothionate (TBPS) binding assays using rat brain cortical membranes in the presence of 5 mM GABA has been described (Gee et al, J. Pharmacol. Exp. Ther. 1987, 241, 346-353; Hawkinson et al, Mol. Pharmacol. 1994, 46, 977-985; Lewin, A. H et al., Mol. Pharmacol. 1989, 35, 189-194). Briefly, cortices are rapidly removed following decapitation of carbon dioxide-anesthetized Sprague-Dawley rats (200-250 g). […]

Read off the recorded IC50 for COC[C@@]1(O)CC[C@H]2[C@H](CC[C@@H]3[C@@H]2CC[C@]2(C)[C@@H](C(C)(C)Cn4cc(C#N)cn4)CC[C@@H]32)C1
< 100 nM

Read off the recorded IC50 for COC[C@H]1C[C@H]2[C@H](CC[C@@H]3[C@@H]2CC[C@@]2(C)[C@H]3CC[C@@H]2[C@](C)(O)Cn2cc(C#N)cn2)C[C@]1(C)O
< 100 nM

Read off the recorded IC50 for COC[C@@]1(O)CC[C@H]2[C@H](CC[C@@H]3[C@@H]2CC[C@]2(C)[C@@H](C4(Cn5cc(C#N)cn5)COC4)CC[C@@H]32)C1
< 100 nM

Read off the recorded IC50 for CC[C@]12CC[C@@](C)(O)C[C@H]1CC[C@H]1[C@@H]3CC[C@H]([C@@](C)(Cn4cc(C#N)cn4)OC)[C@@]3(C)CC[C@@H]12
< 100 nM

Read off the recorded IC50 for COC[C@@]1(O)CC[C@H]2[C@@H](CC[C@@H]3[C@@H]2CC[C@@]2(C)[C@H]3CC[C@@H]2[C@@](C)(O)Cn2cc(C#N)cn2)C1
100 to 1000 nM

---

# Tested On: GABAA receptor
# Procedure Details: Steroid inhibition of [35S]-TBPS binding, rat brain cortical membranes
# Cond: 3 nM [35S]-TBPS, in the presence of 5 mM GABA
# Description: [^35S]-t-Butylbicyclophosphorothionate (TBPS) binding assays using rat brain cortical membranes in the presence of 5 mM GABA has been described (Gee et al, J. Pharmacol. Exp. Ther. 1987, 241, 346-353; Hawkinson et al, Mol. Pharmacol. 1994, 46, 977-985; Lewin, A. H et al., Mol. Pharmacol. 1989, 35, 189-194). Briefly, cortices are rapidly removed following decapitation of carbon dioxide-anesthetized Sprague-Dawley rats (200-250 g). […]
pIC50: −log10 of the molar value.
Task for the reader: assign each of the following compounds its reported pIC50.

Read off the recorded pIC50 for CC[C@]12CC[C@@](C)(O)C[C@H]1CC[C@H]1[C@@H]3CC[C@H]([C@](C)(O)Cn4cc(C#N)cn4)[C@@]3(C)CC[C@@H]12 [Compound 3]
> 7.00

Read off the recorded pIC50 for C[C@@]1(O)CC[C@H]2[C@H](CC[C@@H]3[C@@H]2CC[C@]2(C)[C@@H](C4(Cn5cc(C#N)cn5)COC4)CC[C@@H]32)C1 [Compound 28]
> 7.00

Read off the recorded pIC50 for C[C@@]1(O)CC[C@H]2[C@H](CC[C@@H]3[C@@H]2CC[C@]2(C)[C@@H](C4(Cn5cc(C#N)cn5)CC4)CC[C@@H]32)C1 [Compound 39]
> 7.00

Read off the recorded pIC50 for CC[C@]12CC[C@@](C)(O)C[C@H]1CC[C@H]1[C@@H]3CC[C@H]([C@](C)(Cn4cc(C#N)cn4)OC)[C@@]3(C)CC[C@@H]12 [Compound 6]
> 7.00

Read off the recorded pIC50 for CC[C@]12CC[C@@](C)(O)C[C@H]1CC[C@H]1[C@@H]3CC[C@H]([C@@](C)(O)Cn4cc(C#N)cn4)[C@@]3(C)CC[C@@H]12 [Compound 4]
> 7.00

Read off the recorded pIC50 for CCOC[C@@]1(O)CC[C@H]2[C@H](CC[C@@H]3[C@@H]2CC[C@@]2(C)[C@H]3CC[C@@H]2[C@@](C)(O)Cn2cc(C#N)cn2)C1 [Compound 16]
> 7.00

Read off the recorded pIC50 for CCC[C@@]1(O)CC[C@H]2[C@@H](CC[C@@H]3[C@@H]2CC[C@@]2(C)[C@H]3CC[C@@H]2[C@](C)(O)Cn2cc(C#N)cn2)C1 [Compound 9]
6.00 to 7.00

Read off the recorded pIC50 for CC[C@@]1(O)CC[C@H]2[C@H](CC[C@@H]3[C@@H]2CC[C@@]2(C)[C@H]3CC[C@@H]2[C@](C)(O)Cn2cc(C#N)cn2)C1 [Compound 11]
> 7.00

Read off the recorded pIC50 for COC[C@@]1(O)CC[C@H]2[C@H](CC[C@@H]3[C@@H]2CC[C@@]2(C)[C@H]3CC[C@@H]2[C@@](C)(O)Cn2cc(C#N)cn2)C1 [Compound 30]
6.00 to 7.00

Read off the recorded pIC50 for C[C@@]1(O)CC[C@H]2[C@H](CC[C@@H]3[C@@H]2CC[C@]2(C)[C@@H](C(F)(F)Cn4cc(C#N)cn4)CC[C@@H]32)C1 [Compound 21]
> 7.00
